# inhibition at 10 µM listing for each entry below
Biological target: CCL22 (Homo sapiens)
Sequence (O00626 25-93, species assumed): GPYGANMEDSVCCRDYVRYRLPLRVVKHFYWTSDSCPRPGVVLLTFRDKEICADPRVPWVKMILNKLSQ
Assay: Inhibition of calcium response induced by CCL22 in cells expressing CCR4 (Indo-1)
Assay type: cell-based
Conditions: molecules at 10 μm, read-out: Inhibition of calcium responses induced by CCL22 (%)
Number only, in %; omit the unit.

CCCCC(CC)Cn1cnc2c1c(=O)n(C)c(=O)n2C (centres unmarked) [GPS008661] | 0
CC(C)=CCn1cnc2c1c(=O)n(C)c(=O)n2C [GPN279] | 0

Could you share which inhibition at 10 µM value was measured for CC(C)Cn1cnc2c1c(=O)n(C)c(=O)n2C [GPS008659] ?
5

May I ask what inhibition at 10 µM has been recorded for Cn1c(=O)c2c(ncn2C)n(C)c1=O [Caffeine, reference compound] ?
0

I'd like to know its inhibition at 10 µM. The compound in question is CC(C)Cn1c(=O)n(C)c(=O)c2nc[nH]c21 [IBMX, reference compound]
0
